- Assay procedure: Toxicity liver stage against HepG2, at 10uM
- Format: cell-based
- Design: test concentration 10 uM, cell line HepG2-A16-CD81EGFP
- Experimental setup: human, HepG2-A16-CD81EGFP cells; read-out: INHIBITION

| Compound | Readout units | cytotoxicity at 10 µM |
| --- | --- | --- |
| O=C(CS(=O)(=O)Cc1cc(Cl)c2c(c1)OCO2)N1CCCCCC1 | % | -2.8 |
| O=C1NC2(CCN(C(=O)Cc3ccsc3)CC2)CC1c1ccccc1 (stereo unspecified) | % | -2.04 |
| NC(=O)C1CN(C(=O)Nc2ccccc2N2CCCCCC2)CCO1 (stereo unspecified) | % | -6.31 |
| Cc1nn(C)c2c(N3CCCC3)nc(C3CC3)nc12 | % | 0.12 |
| CC(C)(N)c1cn(C2CCN(C3CCSCC3)CC2)nn1 | % | -10.7 |
| Cc1ccc(N2CC[C@H]3C[C@H](C(=O)NCc4ccco4)O[C@H]3C2)nn1 | % | -3.03 |
| COc1ccc(C2CCCN2c2ccnc(C)c2Cl)c(OC)c1 (stereo unspecified) | % | 28.4 |
| Cc1nc(N(C)C)ncc1C(=O)N[C@H]1Cc2ccccc2[C@@H]1N | % | 1.81 |
| O=C(Nc1cc(C(F)(F)F)c[nH]c1=O)C1CCCNC1 (stereo unspecified) | % | 5.15 |
| CC(C)c1nc(CC(=O)N2CCCC(n3cncn3)C2)cs1 (stereo unspecified) | % | -8.24 |
| O=C(NCCn1ccc(-c2ccccn2)n1)C1CCC1 | % | 4.23 |

From: ChEMBL document CHEMBL4513216
